Dear all, this message contains pKi results, target or system human D4 dopamine receptor (Homo sapiens, UniProt P21917, DEL271-302/N396T/P18R).
pKi: −log10 of the molar value.

compound | target | pKi
CCCN1CCO[C@@H]2c3cc(O)ccc3CC[C@H]21 [PHNO-(+)] | human D4 dopamine receptor (Homo sapiens, UniProt P21917, DEL271-302/N396T/P18R) | 7.38
CCCN1CCc2cccc3c2[C@H]1Cc1ccc(O)c(O)c1-3 | human D4 dopamine receptor (Homo sapiens, UniProt P21917, DEL271-302/N396T/P18R) | 8.26
NC1CCc2cc(O)c(O)cc2C1 (racemic) [ADTN-(±)] | human D4 dopamine receptor (Homo sapiens, UniProt P21917, DEL271-302/N396T/P18R) | 7.47
CCCN(CCc1cccs1)[C@H]1CCc2c(O)cccc2C1 | human D4 dopamine receptor (Homo sapiens, UniProt P21917, DEL271-302/N396T/P18R) | 7.03

----------
The entries below are paired with their reported pKi.
# target: human D4 dopamine receptor (Homo sapiens, UniProt P21917, DEL271-302/N396T/P18R)
# test details: biochemical
pKi: −log10 of the molar value.

compound | pKi
CCN1CCC[C@H]1CNC(=O)c1c(O)c(Cl)cc(Cl)c1OC [Raclopride] | 6.60
CN1CCN(CCCN2c3ccccc3Sc3ccc(S(=O)(=O)N(C)C)cc32)CC1 | 7.28
CSc1ccc2c(c1)N(CCC1CCCCN1C)c1ccccc1S2 (stereo not shown) | 7.92
CN1CCc2cc(Cl)c(O)cc2[C@@H](c2ccccc2)C1 | 5.71
O=C(c1ccc(F)cc1)C1CCN(CCn2c(=O)[nH]c3ccccc3c2=O)CC1 | 6.83
OCCN1CCN(CCCN2c3ccccc3Sc3ccc(C(F)(F)F)cc32)CC1 | 7.38

----------
# target: human D4 dopamine receptor (Homo sapiens, UniProt P21917, DEL271-302/N396T/P18R)
# Sequence (P21917 with tags, fused parts or gaps P18R/DEL271-302/N396T): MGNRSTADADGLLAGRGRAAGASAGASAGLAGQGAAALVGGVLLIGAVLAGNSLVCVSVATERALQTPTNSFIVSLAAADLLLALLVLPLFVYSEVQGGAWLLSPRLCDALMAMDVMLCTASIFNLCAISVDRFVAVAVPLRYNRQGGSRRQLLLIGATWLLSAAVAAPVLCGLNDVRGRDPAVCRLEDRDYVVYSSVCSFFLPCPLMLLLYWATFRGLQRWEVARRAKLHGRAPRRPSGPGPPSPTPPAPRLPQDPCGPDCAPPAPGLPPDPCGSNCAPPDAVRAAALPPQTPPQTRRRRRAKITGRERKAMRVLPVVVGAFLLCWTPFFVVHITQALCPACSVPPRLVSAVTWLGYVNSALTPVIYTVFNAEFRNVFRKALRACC
# test details: [3H]spiperone binding to membranes of COS-7 cells transfected with human D4 receptor construct

compound | result units | Ki
CC(C)C[C@H]1C(=O)N2CCC[C@H]2[C@]2(O)O[C@](NC(=O)[C@@H]3C=C4c5cccc6[nH]c(Br)c(c56)C[C@H]4N(C)C3)(C(C)C)C(=O)N12 | µM | 0.128
Oc1cc2c(cc1O)C(c1ccccc1)CNCC2 (stereo not shown) | µM | 1.6
CCc1cc(Cl)c(OC)c(C(=O)NC[C@@H]2CCCN2CC)c1O | µM | 0.00052
O=c1[nH]c2ccccc2n1C1CCN(CCCC(c2ccc(F)cc2)c2ccc(F)cc2)CC1 [Pimozide] | µM | 0.025
